System: MAK;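 further: KINOMEscan kinase panel screen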
Conditions: concentration: 1 μM, replicates: in singlicate; n = 1
Endpoint: %Inh
Please append the unit to your numeric answer.

Below are worked cases with known answers.
- Compound: "Cc1nnc(-c2ccc3occ(-c4ccc(S(C)=O)cc4)c3c2)[nH]1 (stereo not drawn)"
  Measurement: "0%"
- Compound: "CS(=O)(=O)c1ccc(-c2nc3n(c2-c2ccncc2)CCC3)cc1"
  Measurement: "25%"
- Compound: "COc1cc2ncnc(Nc3ccc4nc(-c5ccccc5)[nH]c4c3)c2cc1OC.Cl"
  Measurement: "0%"
- Compound: "Cl.c1ccc(-c2n[nH]cc2-c2ccnc(-c3ccc(CN4CCOCC4)cc3)c2)nc1"
  Measurement: "0%"
- Compound: "Cc1ccc(-c2cc(-c3c[nH]nc3-c3ccccn3)ccn2)cc1"
  Measurement: "0%"
- Compound: "O=C1NC(=O)C(N2CCc3ccccc32)=C1c1ccccc1Cl"
  Measurement: "9%"

Request: Query: %Inh; subject: COc1ccc(CNC(=O)NC2CCN(c3ccnc(Nc4cc(OC)c(OC)c(OC)c4)n3)C2)cc1 (stereo not drawn)
Result: 17%

Request: Now give it for CCCc1ccc(S(=O)(=O)NC2CCN(c3ccnc(Nc4ccc(F)cc4)n3)C2)cc1 (stereo not drawn) too.
Result: 60%

Request: What do we get for `Cc1c(Cn2ccn3c(=O)cc(N4CCOCC4)nc23)cccc1C(F)(F)F` ?
Result: 20%
